# CC50 at 48 h annotations
Assay: cytotoxicity assay (ATP-Lite cell viability)
Assay type: cell-based, human
Details: human, HOS cells, 48 hours, SD in parentheses
Experimental: One day prior to treatment, HOS cells were prepared in 96-well plates as described for the infectivity assays, except that 12 wells per plate were treated with cell-free media to serve as negative controls. […] Cell viability was determined using luciferase reporter ATP-Lite kits (PerkinElmer). As described for the infectivity assays, drug-free reference wells were normalized to 100%, and viabilities at different drug concentrations were determined as a percentage of these references. […]

See these solved cases before continuing.
COc1ccc(Cn2cnc3c(Nc4c(C)cc(/C=C/C#N)cc4C)nc(Nc4ccc(C#N)cc4)nc32)cc1 | 154 µM
Cc1cc(/C=C/C#N)cc(C)c1Nc1nc(Nc2ccc(C#N)cc2)c2nc[nH]c2n1 | 15 µM
Cc1cc(/C=C/C#N)cc(C)c1Nc1ncc(N)c(Nc2ccc(C#N)cc2)n1 | 19 µM
Cc1cc(/C=C/C#N)cc(C)c1Nc1nc(Nc2ccc3nn[nH]c3c2)c2nc[nH]c2n1 | 100 µM
Cc1cc(/C=C/C#N)cc(C)c1Nc1nc(Nc2ccc(C(F)(F)F)cc2)c2nc[nH]c2n1 | 17 µM
Cc1cc(/C=C/C#N)cc(C)c1-n1cnc2cnc(Nc3ccc(C#N)cc3)nc21 | 42 µM
Cc1cc(/C=C/C#N)cc(C)c1Nc1nc(Nc2cc(F)cc(F)c2)c2nc[nH]c2n1 | 13 µM
Cc1cc(/C=C/C#N)cc(C)c1Nc1nc(Nc2ccc(F)cc2)c2nc[nH]c2n1 | 12 µM
Cc1cc(/C=C/C#N)cc(C)c1Nc1nc(Nc2ccc(C#N)cc2)ncc1N | 50 µM
Cc1cc(/C=C/C#N)cc(C)c1Nc1nc(Nc2ccc3c(c2)OCO3)c2nc[nH]c2n1 | 19 µM

GET /values?readout=CC50 at 48 h&item= Cc1nc2cc(Nc3nc(Nc4c(C)cc(/C=C/C#N)cc4C)nc4[nH]cnc34)ccc2s1
57 µM

Another molecule to look at: Cc1cc(/C=C/C#N)cc(C)c1Nc1ncc2ncn(-c3ccc(C#N)cc3)c2n1
21 µM

Another molecule to look at: Cc1cc(/C=C/C#N)cc(C)c1Nc1ccnc(Nc2ccc(C#N)cc2)n1
10 µM

Another molecule to look at: COc1ccc(Nc2nc(Nc3c(C)cc(/C=C/C#N)cc3C)nc3[nH]cnc23)cc1
12 µM

Another molecule to look at: Cc1cc(/C=C/C#N)cc(C)c1Nc1nc(Nc2ccc3c(c2)CCC3)c2nc[nH]c2n1
30 µM

Another molecule to look at: COc1ccc(Cn2cnc3c(Nc4ccc(C#N)cc4)nc(Nc4c(C)cc(/C=C/C#N)cc4C)nc32)cc1
83 µM

Another molecule to look at: Cc1cc(/C=C/C#N)cc(C)c1Nc1nc(Nc2ccc3ncsc3c2)c2nc[nH]c2n1
2 µM

Another molecule to look at: Cc1cc(/C=C/C#N)cc(C)c1Nc1nc(Nc2ccc3scnc3c2)c2nc[nH]c2n1
38 µM

Another molecule to look at: CC(=O)c1ccc(Nc2nc(Nc3c(C)cc(/C=C/C#N)cc3C)nc3[nH]cnc23)cc1
8 µM

Another molecule to look at: Cc1cc(/C=C/C#N)cc(C)c1Nc1nc(Nc2ccccn2)c2nc[nH]c2n1
36 µM

Another molecule to look at: Cc1cc(/C=C/C#N)cc(C)c1Nc1nc(Nc2ccc(C#N)cc2)ncc1[N+](=O)[O-]
24 µM
